Listed below: fractional viability values for each entry.
tested on: TYKNU; assay: fractional viability relative to vehicle; TYKNU is a high-grade serous ovarian cancer line; higher = less growth inhibition; conditions: 10uM; 72 h; genotype: OPA1 knockout (sgOPA1 #2)
In all, about 2,000 compounds were measured (“fractional viability relative to vehicle”: median about 0.92, lowest 2% from about 0.11 on). The full list was thinned out, with the lowest values kept by preference.
Please reply with the value in numeric form only.

Worked cases, fractional viability given:
I have this molecule here, O=C(N/N=C/c1cc(O)c(O)cc1O)c1cc2ccccc2cc1O [Dyngo-4a] , and I need its recorded fractional viability.
1.16

I have this molecule here, Clc1ccc(C2(c3ccc(-c4cn[nH]c4)cc3)CCNCC2)cc1 , and I need its recorded fractional viability.
0.554

Others:
I have this molecule here, CC[C@H]1OC(=O)[C@H](C)[C@@H](O[C@H]2C[C@@](C)(OC)[C@@H](O)[C@H](C)O2)[C@H](C)[C@@H](O[C@@H]2O[C@H](C)C[C@H](N(C)C)[C@H]2O)[C@](C)(O)C[C@@H](C)C(=O)[C@H](C)[C@H]2OC(=O)O[C@@]21C [Erythromycin Cyclocarbonate] , and I need its recorded fractional viability.
0.883
